Reference source: PubChem BioAssay AID652224

Biological target: Serine/threonine-protein phosphatase 5 (Homo sapiens) (UniProt P53041)
Sequence (P53041 whole entry, looked up, the tested form may be a part): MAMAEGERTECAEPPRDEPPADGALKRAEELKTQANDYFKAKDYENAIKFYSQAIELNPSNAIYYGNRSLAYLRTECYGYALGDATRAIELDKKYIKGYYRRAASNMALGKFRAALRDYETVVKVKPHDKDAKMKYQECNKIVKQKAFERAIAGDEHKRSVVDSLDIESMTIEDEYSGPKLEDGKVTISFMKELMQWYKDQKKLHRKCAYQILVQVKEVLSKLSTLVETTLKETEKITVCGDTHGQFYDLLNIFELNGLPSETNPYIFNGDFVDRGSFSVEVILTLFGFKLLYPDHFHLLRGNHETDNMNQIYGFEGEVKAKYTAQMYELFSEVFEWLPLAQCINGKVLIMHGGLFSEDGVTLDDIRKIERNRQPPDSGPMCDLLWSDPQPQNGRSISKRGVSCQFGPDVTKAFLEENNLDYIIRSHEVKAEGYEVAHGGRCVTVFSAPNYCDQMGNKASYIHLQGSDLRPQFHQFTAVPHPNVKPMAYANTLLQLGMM
Test: inhibition of human PP5 catalytic domain – biochemical, fluorescence, OMFP substrate, powder samples, selectivity assay for PP1 inhibitor project, late-stage follow-up (AID 652224)
Details: purified PP5c, OMFP dephosphorylation fluorescence; at 50 µM; stronger effect = higher value
Assay readout: inhibition (%)

INSERT INTO assay_data (compound, assay_readout, observed) VALUES
  ('Cc1ccc(C(c2ccc3cccnc3c2O)N2CCN(C)CC2)nc1 (centres undefined)', 'inhibition', 66.2),
  ('CN1CCN(C(c2ccccn2)c2cc(Cl)ccc2O)CC1 (centres undefined)', 'inhibition', 4.27),
  ('Oc1c(CN2CCN(c3ccccc3)CC2)cc(Cl)c2cccnc12', 'inhibition', 21.3),
  ('CN1CCN(C(c2ccccc2)c2cc(Cl)c3cccnc3c2O)CC1 (centres undefined)', 'inhibition', 15.5),
  ('CN1CCN(C(c2ccc(C(F)(F)F)cn2)c2ccc3cccnc3c2O)CC1 (centres undefined)', 'inhibition', 61.9);

a = CN1CCN(C(c2ccccn2)c2ccc3cccnc3c2O)CC1 (centres undefined)
b = CN1CCN(C(c2ccc3cccnc3c2O)c2ncccc2C(F)(F)F)CC1 (centres undefined)
c = CN1CCN(C(c2ncccn2)c2ccc3cccnc3c2O)CC1 (centres undefined)
d = CN1CCN(C(c2ccccn2)c2cc(Cl)c3cccnc3c2O)CC1 (centres undefined)
e = CN1CCC(NC(c2ccccn2)c2ccc3cccnc3c2O)CC1 (centres undefined)
query: # ascending order, key=inhibition Rank the items, then write their labels in that order.
result: c, e, b, a, d
(c: -0.77%, e: 9.57%, b: 29.4%, a: 49.2%, d: 75.8%)

1 = CN1CCN(C(c2nccs2)c2cc(Cl)c3cccnc3c2O)CC1 (centres undefined)
2 = COc1ccnc(C(c2ccc3cccnc3c2O)N2CCN(C)CC2)c1 (centres undefined)
query: Dear colleague, could you let me know whether 1 or 2 has the lower recorded inhibition? Thanks. Give the chosen item's label as your response.
result: 1
(1: 35%, 2: 58.8%)

* * *

Molecular target: Serine/threonine-protein phosphatase 5 (Homo sapiens)
Experiment: inhibition of human PP5 catalytic domain – biochemical, fluorescence, OMFP substrate, powder samples, selectivity assay for PP1 inhibitor project, late-stage follow-up (AID 652224)
Details: purified PP5c, OMFP dephosphorylation fluorescence; at 50 µM; stronger effect = higher value
Assay readout: inhibition (%)

# example entries with known answers
INSERT INTO assay_data (compound, assay_readout, value_units, observed) VALUES
  ('Oc1c(C(c2ccccn2)N2CCOCC2)cc(Cl)c2cccnc12 (stereo unspecified)', 'inhibition', '%', 72.5),
  ('COc1ccc(C(c2ccc3cccnc3c2O)N2CCN(C)CC2)nc1 (stereo unspecified)', 'inhibition', '%', 48.5),
  ('CCOC(c1ccccn1)c1cc(Cl)c2cccnc2c1O (stereo unspecified)', 'inhibition', '%', 21.5);

a = Cc1ccnc(C(c2ccc3cccnc3c2O)N2CCN(C)CC2)c1 (stereo unspecified)
b = COc1cccc(C(c2ccc3cccnc3c2O)N2CCN(C)CC2)n1 (stereo unspecified)
query: I'd appreciate it if you could identify which of a and b has the greater inhibition. Give the chosen item's label as your response.
result: a

* * *

Biological target: Serine/threonine-protein phosphatase 5 (Homo sapiens) (UniProt P53041)
Assay: inhibition of human PP5 catalytic domain – biochemical, fluorescence, OMFP substrate, powder samples, selectivity assay for PP1 inhibitor project, late-stage follow-up (AID 652224)
Details: purified PP5c, OMFP dephosphorylation fluorescence; at 50 µM; stronger effect = higher value
Assay readout: inhibition (%)

INSERT INTO assay_data (molecule, value_units, observed) VALUES
  ('CC1CCN(C(c2ccccn2)c2cc(Cl)c3cccnc3c2O)CC1 (stereo unspecified)', '%', 68.5),
  ('CN1CCN(C(c2cccnc2)c2cc(Cl)c3cccnc3c2O)CC1 (stereo unspecified)', '%', 9.84),
  ('Cc1cccnc1C(c1ccc2cccnc2c1O)N1CCN(C)CC1 (stereo unspecified)', '%', 66.1),
  ('CCN1CCN(C(c2ccccn2)c2cc(Cl)c3cccnc3c2O)CC1 (stereo unspecified)', '%', 67.9);

A = CC(C)(C)OC(=O)N1CCN(C(c2ccccn2)c2cc(Cl)c3cccnc3c2O)CC1 (stereo unspecified)
B = Oc1c(C(c2ccccn2)N2CCNCC2)cc(Cl)c2cccnc12 (stereo unspecified)
query: I'd appreciate it if you could identify which of A and B has the greater inhibition. Give the chosen item's label as your response.
result: A
(A: 37.1%, B: 14.4%)
